Tested on: OVCAR4
TEST PROTOCOL: Euclidean distance of Cell Painting phenotypic profile (signed KS, 77 features) to DMSO centroid (dimensionless distance); 5 or 10 uM (library dependent); higher = stronger phenotypic change vs DMSO (phenoactivity)
RECORDED CONDITIONS: 48 h
Where a name gives a salt, the structure may show the parent alone.
PROPERTY: Euclidean distance
Lab note: jot the number down without any unit.

The cases that follow already have their Euclidean distance on record.
{"columns": ["MOLECULE", "Euclidean distance"],
 "data": [
  ["COc1ccc(-c2ccc3c(N4CCOCC4)nc(N4C[C@@H](C)O[C@@H](C)C4)nc3n2)cc1CO", 2.43],
  ["O=C1NC(=O)/C(=C/c2ccc3c(c2)OC(F)(F)O3)S1", 0.892],
  ["NC(=O)N1CCC(CC(=O)N2CCC([C@H]3c4ncc(Br)cc4CCc4cc(Cl)cc(Br)c43)CC2)CC1 [Lonafarnib]", 1.63]
]}

Reported Euclidean distance for Cn1c(N2CCCCS2(=O)=O)nc(C(=O)NCc2ccc(F)cc2)c(O)c1=O was 3.36

# Euclidean distance (molecule: CC(=O)[C@H]1CC[C@H]2[C@@H]3C=CC4=CC(=O)CC[C@@]4(C)[C@@H]3CC[C@]12C [Dydrogesterone] ) is 0.899

// sample Cc1ccc(NC(=O)c2ccc(CN3CCN(C)CC3)cc2)cc1Nc1nccc(-c2cccnc2)n1 [Imatinib Mesylate (STI571)] , its Euclidean distance was 1.55

In plain terms, CC[C@H](C)[C@H](N)C1=N[C@H](C(=O)N[C@@H](CC(C)C)C(=O)N[C@H](CCC(=O)O)C(=O)N[C@H](C(=O)N[C@H]2CCCCNC(=O)[C@H](CC(N)=O)NC(=O)[C@@H](CC(=O)O)NC(=O)[C@H](Cc3cnc[nH]3)NC(=O)[C@@H](Cc3ccccc3)NC(=O)[C@H]([C@@H](C)CC)NC(=O)[C@@H](CCCN)NC2=O)[C@@H](C)CC)CS1 [Bacitracin] has a documented Euclidean distance of 1.22

In plain terms, CC(N/C(=N\C#N)Nc1ccncc1)C(C)(C)C (stereo not drawn) [Pinacidil] has a documented Euclidean distance of 1.54

Measured Euclidean distance of N#CCC1(n2cc(-c3ncnc4[nH]ccc34)cn2)CN(C2CCN(C(=O)c3ccnc(C(F)(F)F)c3F)CC2)C1 : 1.05

What the record says about CNC(=O)CN(CCN(CCN(CC(=O)[O-])CC(=O)NC)CC(=O)[O-])CC(=O)[O-].[Gd+3] [Gadodiamide] : Euclidean distance is 1.1

Euclidean distance reading for C[C@H]1O[C@@H](Oc2c(-c3cc(O)c(O)c(O)c3)oc3cc(O)cc(O)c3c2=O)[C@@H](O)[C@@H](O)[C@@H]1O [Myricitrin] : 0.952

What the record says about N#C[C@@H]1C[C@@H]2C[C@@H]2N1C(=O)[C@@H](N)C12CC3CC(CC(O)(C3)C1)C2 [Saxagliptin hydrate] : Euclidean distance is 1.53

Lab book: Euclidean distance of Cn1cnc2c1c(=O)[nH]c(=O)n2C [Theobromine] noted as 0.9

The molecule identified as COc1ccc(NS(=O)(=O)c2sc3ccc(Cl)cc3c2C)cc1N1CCNCC1 registered its Euclidean distance at 1.29

GET /value?item= CC(C)C[C@H](NC(=O)CNC(=O)[C@H](Cc1ccc(O)cc1)NC(=O)[C@H](CO)NC(=O)[C@H](Cc1c[nH]c2ccccc12)NC(=O)[C@H](Cc1cnc[nH]1)NC(=O)[C@@H]1CCC(=O)N1)C(=O)N[C@@H](CCCNC(=N)N)C(=O)N1CCC[C@H]1C(=O)NCC(N)=O [Gonadorelin Acetate] &field=Euclidean distance returns 1.22

###

Test system: A549
TEST PROTOCOL: Euclidean distance of Cell Painting phenotypic profile (signed KS, 77 features) to DMSO centroid (dimensionless distance); 5 or 10 uM (library dependent); higher = stronger phenotypic change vs DMSO (phenoactivity)
RECORDED CONDITIONS: 48 h
Consider the following compounds and their measured Euclidean distance readings.
// no unit, no text: just the number

{"columns": ["COMPOUND", "Euclidean distance"],
 "data": [
  ["OCc1cc(C(O)CNCCCCCCOCCCCc2ccccc2)ccc1O (stereo not drawn) [Salmeterol]", 1.95],
  ["CCN(CC)CCOC(=O)c1ccc(N)cc1 [Procaine]", 0.935],
  ["COCCCN1CCC(NC(=O)c2cc(Cl)c(N)c3c2OCC3)CC1 [Prucalopride Succinat]", 0.777],
  ["CCCCCc1ccc(C)cc1O [Amylmetacresol]", 0.727],
  ["Nc1ncnc2c1c(-c1cnc3[nH]ccc3c1)nn2C1CCCC1", 5.03],
  ["O=C(c1ccc(F)cc1)C1CCN(CCn2c(=O)[nH]c3ccccc3c2=O)CC1 [Ketanserin]", 0.68]
]}

GET /value?item= Cc1cc(CC(C)CC(C)(C)C)n(O)c(=O)c1 (stereo not drawn) [Piroctone Olamine] &field=Euclidean distance returns 3.56

Entry under test: Cc1ccc(S(=O)(=O)Cc2nc(-c3ccc(C(=O)NCc4cccnc4)cc3)oc2C)cc1 . Its Euclidean distance was 2.65

###

Test system: HEPG2
TEST PROTOCOL: Euclidean distance of Cell Painting phenotypic profile (signed KS, 77 features) to DMSO centroid (dimensionless distance); 5 or 10 uM (library dependent); higher = stronger phenotypic change vs DMSO (phenoactivity)
RECORDED CONDITIONS: 48 h
Structures can show the parent of a compound that is named as a salt.
Catalogue of Euclidean distance readings, one per entry.

As a guide, the following entries are already answered.
{"columns": ["MOLECULE", "Euclidean distance"],
 "data": [
  ["CCCCCCCCCCCCCCCCn1cc[n+](Cc2ccccc2)c1C", 4.61],
  ["CC(=O)OCC(=O)NCCCOc1cccc(CN2CCCCC2)c1 [Roxatidine Acetate HCl]", 0.711],
  ["CO/N=C(\\C(=O)N[C@@H]1C(=O)N2C(C(=O)O)=CCS[C@H]12)c1csc(N)n1 [Ceftizoxime sodium]", 0.578],
  ["CN(C)/N=N/c1[nH]cnc1C(N)=O [Dacarbazine]", 2.73]
]}

Note: attention shifts to another entry.
Tested on HEPG2, the item OCc1ccccc1 [Benzyl alcohol] showed Euclidean distance equal to 1.52

###

Test system: 786-O
TEST PROTOCOL: Euclidean distance of Cell Painting phenotypic profile (signed KS, 77 features) to DMSO centroid (dimensionless distance); 5 or 10 uM (library dependent); higher = stronger phenotypic change vs DMSO (phenoactivity)
RECORDED CONDITIONS: 48 h
PROPERTY: Euclidean distance
Reply with the value as a number alone.

{"columns": ["COMPOUND", "TEST VALUE"],
 "data": [
  ["CCCCc1nc(C)c(CC(=S)N(C)C)c(=O)n1Cc1ccc(-c2ccccc2-c2nnn[nH]2)cc1", 0.829],
  ["C[C@H]1CNC(=O)c2cnn3ccc(nc23)N[C@H](C)c2cc(F)ccc2O1", 4.06],
  ["O=c1[nH]c(=O)n([C@H]2C[C@H](O)[C@@H](CO)O2)cc1F", 1.86]
]}

API: the following record is the query input.
Sure, the documented Euclidean distance for CN(C)CCc1c[nH]c2ccc(Cn3cncn3)cc12 [Rizatriptan Benzoate] is 1.43

###

Test system: DU145
TEST PROTOCOL: Euclidean distance of Cell Painting phenotypic profile (signed KS, 77 features) to DMSO centroid (dimensionless distance); 5 or 10 uM (library dependent); higher = stronger phenotypic change vs DMSO (phenoactivity)
RECORDED CONDITIONS: 48 h
Structures can show the parent of a compound that is named as a salt.
Form field: Euclidean distance (one value per entry).
// response body must contain only the number

Known results for compounds:
{"columns": ["COMPOUND", "TEST VALUE"],
 "data": [
  ["N#CC1(c2ccc(NC(=O)c3cccnc3NCc3ccncc3)cc2)CCCC1 [Apatinib]", 0.92],
  ["CO/N=C(\\C(=O)N[C@@H]1C(=O)N2C(C(=O)[O-])=C(C[N+]3(C)CCCC3)CS[C@H]12)c1csc(N)n1 [Cefepime Dihydrochloride Monohydrate]", 0.945],
  ["COc1cc2ncnc(Sc3nnc(C)s3)c2cc1OC", 0.977],
  ["FC(F)c1nc2ccccc2n1-c1nc(N2CCOCC2)nc(N2CCOCC2)n1", 3.69],
  ["CN1C2CCCC1CC(NC(=O)c1nn(C)c3ccccc13)C2 (stereo not drawn) [Granisetron HCl]", 1.37]
]}

Memo: CCC[C@H](NC(=O)[C@@H]1[C@H]2CCC[C@H]2CN1C(=O)[C@@H](NC(=O)[C@@H](NC(=O)c1cnccn1)C1CCCCC1)C(C)(C)C)C(=O)C(=O)NC1CC1 [Telaprevir (VX-950)] , reported Euclidean distance: 1.2

Lab note: COc1cc2ncnc(Nc3cccc(Cl)c3F)c2cc1OC(=O)N1CCN(C)C[C@H]1C gave Euclidean distance of 1.72

Entry COc1cc2nc(N3CCN(C(=O)C4COc5ccccc5O4)CC3)nc(N)c2cc1OC (stereo not drawn) [Doxazosin] — recorded Euclidean distance = 1.55

So for Cc1ccc(-n2nc(C(C)(C)C)cc2NC(=O)Nc2ccc(OCCN3CCOCC3)c3ccccc23)cc1 [BIRB 796 (Doramapimod)] , the logged Euclidean distance turned out to be 1.2

The value of Euclidean distance measured for the compound CN1C(=O)OC(C)(C)C1=O [Trimethadione] turned out to be 0.732

Note to self: Euclidean distance recorded for COc1ccc(-c2ccc3cc(C(=O)O)ccc3c2)cc1C12CC3CC(CC(C3)C1)C2 [Adapalene] was 1.39

Recorded result, CNC[C@H](O)[C@@H](O)[C@H](O)[C@H](O)CO [Meglumine] , Euclidean distance: 2.13

The compound listed as Nc1nc2c(ncn2COCCO)c(=O)[nH]1 [Aciclovir] has a reported Euclidean distance of 1.08

// provenance: the supplement of paper PMC10127200
